Measured pKd of individual entries
target: human alpha-synuclein monomer (human, UniProt P37840 1-140); assay: SPR (Biacore 8K), IgG captured on anti-human Fc, aSyn monomer injected;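 further: aSyn injected as a dilution series, signal corrected against a reference cell holding an irrelevant IgG, Kd from one-to-one Langmuir kinetic fitting of kon and koff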
pKd: −log10 of the molar value.

binder	pKd
H1_3_LC2 (antibody, V domains shown) VH: EVQLVESGGGLVQPGGSLRLSCAASGFTFSRAAMYWVRQAPGKGLELVSRIRTKPNNYATYHADSVKGRFTISRDNSKNTLYLQMNSLRAEDTAVYYCTADMATGDYWGQGTLVTVSS VL: DIQMTQSPSSLSASVGDRVTITCKASQNINKNLDWYQQKPGKAPKPLIYSTNNLQTGVPSRFSGSGSGTDFTLTISSLQPEDFATYYCYQYKSAWTFGQGTKVEIK	8.39
HC2_L3_2 (antibody, V domains shown) VH: EVQLVESGGGLVQPGGSLRLSCAASGFTFSNAAMYWVRQAPGKGLELVSRIRTKPNNYATYHADSVKGRFTISRDNSKNTLYLQMNSLRAEDTAVYYCTADMATGDYWGQGTLVTVSS VL: DIQMTQSPSSLSASVGDRVTITCKASQNINKNLDWYQQKPGKAPKPLIYSTNNLQTGVPSRFSGSGSGTDFTLTISSLQPEDFATYYCYQDKRGWTFGQGTKVEIK	8.34
HC2_L3_9 (antibody, V domains shown) VH: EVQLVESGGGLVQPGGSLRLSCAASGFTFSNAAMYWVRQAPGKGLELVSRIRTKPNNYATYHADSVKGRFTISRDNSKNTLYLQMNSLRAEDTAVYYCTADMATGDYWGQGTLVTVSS VL: DIQMTQSPSSLSASVGDRVTITCKASQNINKNLDWYQQKPGKAPKPLIYSTNNLQTGVPSRFSGSGSGTDFTLTISSLQPEDFATYYCYQYKYAWTFGQGTKVEIK	8.53

Data provenance is patent US20230074436A1.
